% 25 nM CA200645 binding for assorted compounds
target: human A3AR (Homo sapiens); construct: expressed in transfected cells; test: LOPAC library primary screen: single concentration (10 μM) inhibition of 25 nM CA200645 binding, PHERAstar FS
Sequence (P0DMS8 whole entry): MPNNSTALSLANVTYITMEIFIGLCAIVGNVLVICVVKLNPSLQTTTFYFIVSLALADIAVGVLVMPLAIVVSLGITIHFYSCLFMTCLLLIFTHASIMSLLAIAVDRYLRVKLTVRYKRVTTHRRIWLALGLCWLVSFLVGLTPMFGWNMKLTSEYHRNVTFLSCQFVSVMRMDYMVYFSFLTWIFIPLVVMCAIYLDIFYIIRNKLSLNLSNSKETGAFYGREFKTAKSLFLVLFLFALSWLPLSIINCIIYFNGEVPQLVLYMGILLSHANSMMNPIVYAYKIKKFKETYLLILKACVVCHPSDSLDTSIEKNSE
Structures can show the parent of a compound that is named as a salt.

{"compound": "Cl.NCC(O)C1CCCCCCC1 (stereo not drawn)", "display unit": "%", "% 25 nM CA200645 binding": 94.5}
{"compound": "COc1ccccc1OCC(O)CN1CCN(CC(=O)Nc2c(C)cccc2C)CC1 (stereo not drawn) [Ranolazine dihydrochloride]", "display unit": "%", "% 25 nM CA200645 binding": 102.3}
{"compound": "CN/C(=N/CCSCc1nc[nH]c1C)NC#N [Cimetidine]", "display unit": "%", "% 25 nM CA200645 binding": 94.0}
{"compound": "C[C@H](N[C@@H](CCc1ccccc1)C(=O)O)C(=O)N1CCC[C@H]1C(=O)O.O.O [Enalaprilat dihydrate]", "display unit": "%", "% 25 nM CA200645 binding": 95.6}
{"compound": "CN(C)CCC=C1c2ccccc2CCc2ccccc21 [Amitriptyline hydrochloride]", "display unit": "%", "% 25 nM CA200645 binding": 83.6}
{"compound": "CC[C@@]1(O)C(=O)OCc2c1cc1n(c2=O)Cc2cc3ccccc3nc2-1 [(S)-(+)-Camptothecin]", "display unit": "%", "% 25 nM CA200645 binding": 99.7}
{"compound": "c1ccc2cc(-c3ncc[nH]3)ccc2c1 [Benazoline oxalate]", "display unit": "%", "% 25 nM CA200645 binding": 98.8}
{"compound": "COc1ccc2[nH]cc(CCN)c2c1.Cl [O-Methylserotonin hydrochloride]", "display unit": "%", "% 25 nM CA200645 binding": 107.2}
{"compound": "Br.CCCN(CCC)C1CCc2ccc(O)cc2C1 (racemic) [(±)-7-Hydroxy-DPAT hydrobromide]", "display unit": "%", "% 25 nM CA200645 binding": 98.0}
{"compound": "COc1ccc2c(c1)CC[C@@H]1[C@@H]2CC[C@]2(C)[C@@H](NCCCCCCN3C(=O)C=CC3=O)CC[C@@H]12 [U-73122]", "display unit": "%", "% 25 nM CA200645 binding": 73.1}
{"compound": "C[C@H](CS)C(=O)N1CCC[C@H]1C(=O)O [Captopril]", "display unit": "%", "% 25 nM CA200645 binding": 97.2}
{"compound": "CN(CC[C@@H](Oc1ccc(C(F)(F)F)cc1)c1ccccc1)CC(=O)[O-].[Li+] [Org 24598 lithium salt]", "display unit": "%", "% 25 nM CA200645 binding": 94.3}
{"compound": "Clc1ccccc1C(c1ccccc1)(c1ccccc1)n1ccnc1 [Clotrimazole]", "display unit": "%", "% 25 nM CA200645 binding": 74.0}
{"compound": "N#CC(=C(/N)Sc1ccccc1N)/C(C#N)=C(/N)Sc1ccccc1N [U0126]", "display unit": "%", "% 25 nM CA200645 binding": 97.2}
{"compound": "COc1ccccc1N1CCN(CCN2C(=O)CC3(CCCC3)CC2=O)CC1.Cl.Cl [BMY 7378 dihydrochloride]", "display unit": "%", "% 25 nM CA200645 binding": 82.8}
{"compound": "Cn1c(=O)c2[nH]c(C3CCCC3)nc2n(C)c1=O [8-Cyclopentyl-1,3-dimethylxanthine]", "display unit": "%", "% 25 nM CA200645 binding": 96.1}
{"compound": "COC(=O)c1c(C)[nH]c(C)c1C(=O)c1ccccc1Cc1ccccc1 [FPL 64176]", "display unit": "%", "% 25 nM CA200645 binding": 74.2}
{"compound": "Cl.c1ccc(CN(CC2=NCCN2)c2ccccc2)cc1 [Antozoline hydrochloride]", "display unit": "%", "% 25 nM CA200645 binding": 97.0}
